System: CAKI-1 renal
Assay: NCI-60 one-dose screen, 48 h
Conditions: 10 µM unless noted
Compounds without any hit were thinned out: in the full panel of roughly 83,000, 20% have a hit. Active and inactive are the calls of the source. Rule for the calls: active = growth percent below 10; inactive = the rest.
Labels: active, inactive

>>> print(df.to_string())
                                    compound  assigned_class
 0  C=C1CCC2C(C)(CO)C(O)CCC2(C)C1CC(NCc1ccccc1)C1=CCOC1=O (stereo unspecified)        inactive
 1            CCNc1nc(S(=O)(=O)CC)nc2ccccc12        inactive
 2  CCO/C=N/C1=C(C#N)C(c2ccc(Cl)cc2)c2c(c3ccccc3n(C)c2=O)O1 (stereo unspecified)          active
 3  COc1cc(/C=C/C(=O)/C=C/c2cc(OC)c3c(c2)OCO3)cc2c1OCO2        inactive
 4  CCC(=O)OC1=CN2C(=NC(c3ccc(N)cc3)=CC2c2cc(OC)c(OC)c(OC)c2)S1 (stereo unspecified)        inactive
 5  COc1cc2c(cc1OCCCN1CCN(CCCn3c4ccccc4c4ccccc43)CC1)N=C[C@@H]1CCCN1C2=O          active
 6  NC(N)=N/N=C/c1ccc(-c2ccc(-c3cc(Cl)cc(Cl)c3)s2)cc1        inactive
 7  Clc1cccc(-c2cc(-c3ccc4c(c3)OCCO4)[nH]n2)c1        inactive
 8              O=C1CCCCC1(c1ccccc1)c1ccccc1        inactive
 9  COc1ccc(Nc2nn3c(C)cc(C)nc3c2C(=O)Nc2ccc(C)cc2)c(OC)c1        inactive
10  CCN(CC)CCOC(=O)C(c1ccccc1)(c1ccccc1)C(C)C        inactive
11  CC(=O)Oc1csc(N(C(C)=O)c2cc(C(=O)O)cc(C(=O)O)c2)n1        inactive
12  CCCCCCCC[C@@H](O)CC(=O)N[C@@H](CC(N)=O)C(=O)N[C@@H](CCC(N)=O)C(=O)N[C@@H](CC(=O)c1cc(C)cc(O)c1C(=O)c1c(O)cccc1O)CC(C)C        inactive
13        C=C[C@@H]1C[C@@H]2Cc3cc(F)ccc3N1O2        inactive
14  Cc1ccc(-c2cc3nc(-c4ccccc4)nc(C(Cl)Cl)n3n2)cc1          active
15  O=C1CS/C(=N\Nc2cc(=O)[nH]c3ccccc23)N1c1ccccc1        inactive
16           C=C[C@@H]1C[C@@H]2Cc3ccccc3N1O2        inactive
17  C=C1C(=O)O[C@@H]2[C@@H]3O[C@@](C)(CC/C=C(\C)CCC[C@@H]2C)[C@H](O)C[C@@H]13        inactive
18  COc1ccc(C(=O)n2nc(/C=C/c3ccc(O)c(OC)c3)cc2/C=C/c2ccc(O)c(OC)c2)cc1        inactive
19  CC1=C(C#N)C(=O)NC(C)C1 (stereo unspecified)        inactive
20  CC12CCC3C4(C)COC(c5ccco5)OC4CCC3(C)C1CC(C1=CCOC1=O)O2 (stereo unspecified)        inactive

====

Test system: MDA-MB-231 breast
Assay: NCI-60 one-dose screen, 48 h
Conditions: 10 µM unless noted
Compounds without any hit were thinned out: in the full panel of roughly 83,000, 20% have a hit. The source made the active and inactive calls. Rule for the calls: active = growth percent below 10; inactive = the rest.
Labels: active, inactive

                                   molecule  assigned_class
0  COc1cc(Cn2cc3c(c2)-c2oncc2CC3)cc(OC)c1OC        inactive
1           C=C[C@@H]1C[C@@H]2Cc3ccccc3N1O2        inactive
2         Nc1cc2c(cc1C(=O)c1cccc(F)c1)OCCO2        inactive
3                 CCc1cnc(=S)n(-c2ccccc2)c1        inactive
4  C=C1CC2(OC1=O)C(=O)N(CCCN1C(=O)C3(CC(=C)C(=O)O3)c3ccccc31)c1ccccc12 (stereo not given)          active
5  COc1ccc(-c2ccc(C)n2-c2ccc(-c3nc4ccccc4s3)cc2)cc1        inactive
6  COc1ccc(S(=O)(=O)n2ccc(-c3ccc4c(c3)CCC(C)(C)O4)n2)cc1OC        inactive
7  CN(C)c1ncnc2c1ccn2C1OC(CO)C(O)C1O (stereo not given)          active
8  COc1ccc(NC(=O)CSc2nc(-c3ccc(OC)c(OC)c3)cc(-c3cc(OC)c(OC)c(OC)c3)n2)cc1        inactive
9  Cc1cc(N/N=C/c2nc(-c3ccc(Br)cc3)oc2C)c2cc(Cl)ccc2n1        inactive

====

Test system: MDA-MB-435 melanoma
Experiment: NCI-60 one-dose screen, 48 h
Details: 10 µM unless noted
Protocol: Growth inhibition of the MDA-MB-435 human Melanoma tumor cell line is measured as a screen for anti-cancer activity. Cells are grown in 96 well plates and exposed to the test compound for 48 hours. Compounds are tested at a single concentration, which is 10^-5 M for most compounds. The reported endpoint is percent growth (GI% or GIPRCNT), where numbers from 0 - 100% represent growth inhibition, and numbers from -100% - 0 represent cell death. […]
About 83,000 compounds went through this panel and 20% of them were active in at least one assay; those are over-represented in the sample as a whole. The source made the active and inactive calls. How the source made its calls: active means growth percent below 10; inactive means the rest.
Labels: label 1 = active, label 0 = inactive

>>> df
                                    molecule  assigned_class
 0        Nc1ccc(C(=O)CSc2nc3ccccc3[nH]2)cc1         label 0
 1  Cc1cc(C)n(-c2nnc3n2N=C(c2ccc(-c4ccccc4)cc2)CS3)n1         label 1
 2  CC(C)(C)NCCC(O)c1cc2c(Cl)cc(Cl)cc2c2cc(C(F)(F)F)ccc12 (centres undefined)         label 1
 3       COc1ccc(-c2nc(N3CCCC3=O)sc2Br)cc1OC         label 0
 4  COc1cc(-c2nc(N=Nc3c(O)[nH]c4ccc(Br)cc34)[nH]c(=O)c2C#N)cc(OC)c1OC         label 0
 5  COc1ccc(/C=C/c2c(C(C)=O)c(C)nc3ccccc23)cc1         label 0
 6  Fc1ccc(Nc2ncnc3ccc(-c4cnc5[nH]ccc5c4)cc23)cc1Cl         label 0
 7  Fc1ccc(Nc2nc(NCCNc3ccnc4cc(Cl)ccc34)nc(N3CCOCC3)n2)cc1         label 0
 8    C=C(C)[C@@H]1C[C@@H]2Cc3cc(Cl)ccc3N1O2         label 0
 9  C=C1C(=O)O[C@H]2[C@H]1CC/C(Cn1cc(CNC(=O)c3cc4ccccc4[nH]3)nn1)=C\CC[C@@]1(C)O[C@@H]21         label 0
10  CCOC(=O)CN1/C(=N/c2sc3c(c2C(=O)OCC)CCN(C(=O)OCC)C3)SC(=O)/C1=C\C(=O)OC         label 0
11  O=C1C2(c3ccccc3)C(c3ccccc3)=C(c3ccccc3)C1(c1ccccc1)C1CC=CC12 (centres undefined)         label 0
12  CCC(=O)OC1=CN2C(=NC(c3ccc(N)cc3)=CC2c2cc(OC)c(OC)c(OC)c2)S1 (centres undefined)         label 0
13  CC(=O)Nc1ccc(S(=O)(=O)n2ccc(-c3ccc4c(c3)CCC(C)(C)O4)n2)cc1         label 0
14  O=c1[nH]c(Nc2ccc(S(=O)(=O)O)cc2)nc2nc(Nc3ccc(NC(=S)Nc4ccccc4)cc3)nc(-c3ccc(O)cc3O)c12         label 0
15  c1ccc(-c2cn(-c3ccccc3)c(-c3ccccc3)n2)cc1         label 0
16  COc1cc2c(=O)n(C3CCCCCC3)c3c4cc[nH]c4ncc3c2cc1OC         label 0
17  COc1ccc2c(c1)[nH]c(=O)c1c3cc(C)c(C)cc3cn21         label 1
18  CCOC(=O)c1ccc2c(c1)nc(-c1ccc(OCc3ccccc3)c(OC)c1)n2-c1cc(C(C)(C)C)[nH]n1         label 0

====

System: ACHN renal
Experiment: NCI-60 one-dose screen, 48 h (100 = growth as untreated, 0 = no growth, -100 = all killed)
Details: 10 µM unless noted
Compounds without any hit were thinned out: in the full panel of roughly 83,000, 20% have a hit.
The compounds listed here are annotated with their growth.
metric: growth (%)

>>> print(df.to_string())
                                    compound  metric  data_value
 0  CC1=C(C#N)C(=O)NC(C)C1 (stereo not given)  growth         102
 1  Cc1ccc2nc(-c3cc4c([nH]c5ccccc54)c(-c4ccc(F)c(F)c4)n3)[nH]c2c1  growth        85.9
 2  Cc1ccc(S(=O)(=O)NCCNc2nccc(-c3c(-c4cccc(N)c4)nc4sccn34)n2)cc1  growth        86.4
 3  C1=Cc2ccccc2N(c2nnc(-c3ccccc3)o2)c2ccccc21  growth        95.1
 4  CCCCOc1ccc(/C=C2/SC(N3CCOCC3)=NC2=O)cc1OCC  growth          96
 5  Cc1ccc(S(=O)(=O)n2cc(C(=O)C(=O)Nc3ccncc3)c3ccccc32)cc1  growth        52.3
 6      C=C[C@@H]1C[C@H](O)Cc2c(C)cc(C)cc2N1  growth         103
 7  Oc1ccccc1/C=N/NC(=S)NC1CC2C=CC1C2 (stereo not given)  growth        73.6
 8  COc1ccc(C2C=C(c3ccc(Cl)cc3)N=C3SC=C(C)N32)c(Br)c1 (stereo not given)  growth          53
 9  Cc1ccc(S(=O)(=O)Nc2c(Br)cc(Br)cc2C(N)=O)cc1  growth         101
10                 CCN(CC)CCOc1ccc(Cl)c(C)c1  growth         104
11  C=C1CCC2C3(C)COC(c4ccc(N(C)C)cc4)OC3CCC2(C)C1C/C=C1/C(=O)OCC1O (stereo not given)  growth        79.3
12  O=[N+]([O-])c1cc(Cl)c2[nH]c3c(Cl)cc([N+](=O)[O-])cc3c2c1  growth       -10.3
13  CCCCCCCC[C@@H](O)CC(=O)N[C@@H](CC(N)=O)C(=O)N[C@@H](CCC(N)=O)C(=O)N[C@@H](CC(=O)c1cc(C)cc(O)c1C(=O)c1c(O)cccc1O)CC(C)C  growth        31.9
14  COc1ccc(Nc2[nH]n3c(=O)cc(-c4ccccc4)nc3c2C(=O)Nc2ccc(C)cc2)c(OC)c1  growth        88.5
15  O=C(NNC(=O)N1c2ccccc2C=Cc2ccccc21)c1ccc2ccccc2c1  growth        96.1
16  Clc1cc(Cl)cc(-c2ccc(-c3ccc(/C=N/NC4=NCCN4)cc3)s2)c1  growth          59
17  O=[N+]([O-])c1cccc(-c2nc3sccn3c2-c2ccnc(NCCCNS(=O)(=O)c3ccc(C(F)(F)F)cc3)n2)c1  growth        22.6
18  O=c1cc/c(=N\Nc2ccccc2)c(=O)/c1=N/Nc1ccccc1  growth        99.7
19  Clc1cc(Cl)c2nc(-c3ccc(-c4ccc(/C=N/NC5=NCCN5)cc4)s3)cn2c1  growth         105
